Test system: L1210 leukemia ip in BDF1 mice, survival T/C
ASSAY_NOTES: NCI In Vivo Anticancer Drug Screen. Data for tumor model L1210 Leukemia (intraperitoneal) in B6D2F1 (BDF1) mice
RUN_CONDITIONS: endpoint: mean survival time; dose: 100.0 mg/kg/injection; schedule: Q01DX009 (ip); vehicle: saline
Toxic doses and inconclusive results are not listed. No stated cut-off is given here; in the data, active means T/C of 150% or more; inactive means T/C below 125%.
Permitted responses: active, inactive

[ask] What classification did "CCCCCCCCCCCCNC=O" end up with in this test?
[reply] inactive

[ask] For this compound, state the assay outcome: CN1CC(COC(=O)CCc2ccc(N(CCCl)CCCl)cc2)C=C2c3cccc4[nH]cc(c34)C[C@H]21 (some centres undefined)
[reply] inactive

[ask] Lab log entry: "CCOc1ccc2cc(S(=O)(=O)O)ccc2c1N" — outcome as called in the assay?
[reply] inactive

[ask] In this assay, the call recorded for "CC(=O)Nc1ccccc1N" was what?
[reply] inactive

[ask] Call for entry CCC(C)(O)C#CC(C)(O)CC (centres undefined) :
[reply] inactive

[ask] Hey, what did the test say about CCN(CC)CCCC(C)Nc1ccc(O)c2c1C(=O)c1ccccc1C2=O (centres undefined) ?
[reply] inactive

[ask] For "CC(C)(C)OC(=O)NCC(=O)O" , what call appears in the results of this test?
[reply] inactive

[ask] Field: outcome | Entry: "Nc1cc(S(=O)(=O)O)cc2cc(S(=O)(=O)O)c(N=Nc3cc(S(=O)(=O)O)cc4cc(S(=O)(=O)O)cc(O)c34)c(O)c12"
[reply] inactive

[ask] Test call, this compound: "COC(OC)OC"
[reply] inactive

[ask] Which outcome was assigned to CCOC(=O)C(=O)CC1=NC2CCCCC2N(C)C1=O (centres undefined) in this test?
[reply] inactive

[ask] Would you mind telling me which call this test gave O=C(OCC1OC(n2cnc3c(=S)nc[nH]c32)C(OC(=O)c2ccccc2)C1OC(=O)c1ccccc1)c1ccccc1 (centres undefined) ?
[reply] active

[ask] Dear all, I need the recorded test outcome for CCN1C(=O)CC(O)C1=O (centres undefined) , thank you.
[reply] inactive

[ask] Which outcome did this test record for the compound OC1OCCOC1O (centres undefined) ?
[reply] inactive

[ask] Field: outcome | Entry: "c1cc2c(c3c1CCCC3)CCCC2"
[reply] inactive

[ask] Could you check what this test reported for "CC(=O)Nc1cc(C)no1" ?
[reply] inactive

[ask] Please let me know the test result on file for CC(O)Cn1cnc2c1c(=O)n(C)c(=O)n2C (centres undefined) .
[reply] inactive

[ask] Recorded test outcome, item "CCOc1ccn(CC(=O)Nc2nccs2)c(=O)n1"
[reply] inactive

[ask] Given "NC(=O)CCP(=O)(CCC(N)=O)CCC(N)=O" , state the outcome it received in this test.
[reply] inactive

[ask] State the result this test recorded for "C=C1C=C(C)N(C(C)=O)CCN1C(C)=O" .
[reply] inactive

[ask] What was the test verdict on C[P+]1(C)CC2OC2C1 (centres undefined) ?
[reply] inactive

[ask] Outcome? CC(=O)NC(CC(=O)O)C(=O)O (centres undefined)
[reply] inactive

[ask] Which outcome was assigned to "CCCCCCCCC(=O)CCCC" in this test?
[reply] inactive

[ask] Give the logged outcome of this assay for the following compound: "CCCCCCCCCCCCOP(OCCCCCCCCCCCC)OCCCCCCCCCCCC"
[reply] inactive

[ask] Give the logged outcome of this assay for the following compound: CCOC1NC(C)(C)CO1 (centres undefined)
[reply] inactive

[ask] Which outcome was entered for the compound CC(Br)C(=O)NCC(=O)NCC(=O)O (centres undefined) in this test?
[reply] inactive

[ask] // param item: CCCCC(CC)COP(=O)(CC(CC)CCCC)OCC(CC)CCCC (centres undefined) ; yields the recorded call
[reply] inactive

[ask] Fill in: this test's call for CC1(c2cccs2)C(=O)N(Cl)C(=O)N1Cl (centres undefined) is ___
[reply] inactive

[ask] Entry "O=S(O)c1ccccc1" : call = ?
[reply] inactive

[ask] Could you kindly confirm the outcome this assay logged for "CCOC(OCC)c1cc[n+](CCc2ccc(OC)c(OC)c2)cc1" ?
[reply] inactive

[ask] Query: recorded result category for "O=C(O)c1ccccc1C(=O)c1cccs1" in this test
[reply] inactive

[ask] What did the test return for "O=S(=O)(O)CCO" ?
[reply] inactive

[ask] Fill in: this test's call for "CCOC(OCC)OC(C)=O" is ___
[reply] inactive

[ask] // return assay outcome for "CC(=O)OCc1cccc(C)n1"
[reply] inactive

[ask] What did the test return for "CCOC(=O)COC" ?
[reply] inactive
